- particulars: buffer; pH 7.4; 200.0 µM
Please use yes (1) whenever solubility kinetic is not below 30 µg/mL, and no (0) whenever it is.

compound	assigned class
COc1cc(-c2nc3ccccn3c2N)ccc1O	yes (1)
Cc1ccc(CN2CC(C(=O)Nc3cccc(C)n3)CC2=O)cc1 (configuration not stated)	yes (1)
O=C(CCc1nc(-c2ccc(F)cc2)no1)NCc1ccccc1CN1CCOCC1	yes (1)
COc1ccc(CNC(=S)Nc2ccc(Br)cc2)cc1	no (0)
Cc1onc(C(=O)Nc2ccccc2C(F)(F)F)c1[N+](=O)[O-]	yes (1)
O=C(CNS(=O)(=O)c1ccc(F)cc1)N1CCCC1	yes (1)
O=C(O)c1cc(-c2cccs2)nc2ccc(Br)cc12	yes (1)
Cc1cc(C)c(C)c(S(=O)(=O)N[C@@H](C)C(=O)OCC(N)=O)c1C	yes (1)
O=C(c1ccc(-c2ccccc2)cc1)N1CCN(c2ccccc2F)CC1	no (0)
O=CN(c1ccccc1)c1ccc2ccccc2c1	no (0)
CC(=O)c1sc(=S)n(Cc2ccccc2)c1C	yes (1)
CCN(C(=O)COC(=O)Cc1c[nH]c2ccccc12)C1CCS(=O)(=O)C1 (configuration not stated)	yes (1)
CC(C)Cc1cc(C(=O)Nc2cccc(O)c2)no1	no (0)
COc1ccc(NC(=O)CCc2ccc(OC)c(OC)c2)cn1	yes (1)
O=C(NC1C/C(=N/O)c2cc3c(cc21)OCO3)C(F)(F)F (configuration not stated)	yes (1)
Nn1cnnc1SCC(=O)Nc1ccc2c(c1)OCO2	yes (1)
S=C(NCc1ccco1)Nc1ccc(Cl)cn1	no (0)
O=C(COC(=O)c1cc(Cl)nc(Cl)c1)NCc1ccc2c(c1)OCO2	no (0)
O=C(c1ccc([N+](=O)[O-])cc1[N+](=O)[O-])n1cnc2ccccc21	no (0)
CCOc1ccc(C(C)NC(=O)Nc2ccc(F)cc2F)cc1 (configuration not stated)	no (0)
Cn1cccc1C(=O)NCC1CCCCC1	no (0)
COc1ccc(NC(=O)CC2Oc3ccccc3NC2=O)c(OC)c1 (configuration not stated)	no (0)
CC(C)[C@@H](N)C(=O)N/N=C/c1ccc2nccnc2c1.Cl	yes (1)
COC(OC)C1(C)C(C#N)=C(N)Oc2c1c(=O)oc1ccccc21 (configuration not stated)	no (0)
Cc1ccc(N=CC2=C(O)CC(c3ccccc3Cl)CC2=O)cc1 (configuration not stated)	no (0)
CN1CCCC(OC(=O)c2ccccc2F)C1.Cl (configuration not stated)	yes (1)
CCCCOc1ccc(CC(=O)NO)cc1	yes (1)
COCCCNC(=O)/C(C#N)=C/c1cc(C)[nH]c1C	yes (1)
CC(=O)N1CCN(c2c(F)c(F)c(C(F)(F)F)c(F)c2F)CC1	yes (1)
COc1ccc(NC(=O)CN(C)C2=NS(=O)(=O)c3ccccc32)cc1Cl	no (0)
CC(C)(C#CC(O)(c1ccccc1)c1ccccc1)N1CCCC1.Cl	yes (1)
CN(CC(=O)Nc1ccc(F)cc1)C(=O)CN1C(=O)NC2(CCCCC2)C1=O	no (0)
O=C(COc1ccc(F)cc1Br)NCC1(N2CCCCC2)CCCCC1	yes (1)
CC1SC2(NC1=O)C1CC3CC(C1)CC2C3 (configuration not stated)	no (0)
O=C(Cc1ccccc1F)NCC1(N2CCOCC2)CCCCC1	yes (1)
O=C(CCCn1c(=O)oc2ccccc21)Nc1ccccc1	yes (1)
Cc1cccc(NC(=S)NCC(C)CSc2ccc(Cl)cc2)c1 (configuration not stated)	no (0)

* * *

- particulars: buffer; pH 7.4; 200.0 µM

compound	solubility kinetic
CC1=NN(c2nc(-c3ccc(C#N)cc3)cs2)C(=O)C1	> 42.3 µg/mL
CC(C)CNS(=O)(=O)c1ccc(CCC(=O)N2CCCC2)cc1	> 50.8 µg/mL
O=C1CCC([N+](=O)[O-])C(c2ccccc2F)N1 (stereo not drawn)	> 35.7 µg/mL

* * *

- particulars: buffer; pH 7.4; 200.0 µM

molecule	readout units	rel	solubility kinetic
O=C(COC(=O)c1ccc(O)cc1O)NC1CC1	µg/mL	>	37.7
CC1Cc2ccccc2N1CC(=O)Nc1cccc(S(N)(=O)=O)c1 (configuration not stated)	µg/mL	>	51.8
N#Cc1cccc(NC(=O)Cc2ccsc2)c1	µg/mL	=	33.4
COC(=O)c1ccc(Nc2nc(-c3ccncc3)nc3ccccc23)cc1	µg/mL	=	1.1
CCN(CC)CC(=O)Nc1sc(C)cc1C(=O)c1ccccc1	µg/mL	=	2.5
COc1ccccc1NC(=O)COC(=O)Cn1cnc2c1c(=O)n(C)c(=O)n2C	µg/mL	>	60.2
Cc1ccc(C(=O)NCCCn2ccnc2)cc1C	µg/mL	>	38.6

* * *

- particulars: buffer; pH 7.4; 200.0 µM

molecule	solubility kinetic
CCCCN1CC2=C(C1=O)C(c1ccc(O)cc1)NC(=O)N2C (stereo unspecified)	> 47.3 µg/mL
CSCCC(NC(=O)c1cccc(C)c1)C(=O)O (stereo unspecified)	> 40.1 µg/mL
CC(=O)c1cn(CCOc2ccccc2C)c2ccccc12	< 0.6 µg/mL
O=C1CCC(C(=O)Nc2ccccc2N2CCCC2)=NN1	> 42.9 µg/mL
CCOC(=O)c1c(C)[nH]c(C)c1C(=O)COC(=O)c1ccc(O)cc1	> 51.8 µg/mL
CC1COc2ccccc2N1C(=O)c1ccccc1Cl (stereo unspecified)	> 43.2 µg/mL

* * *

The entries below are paired with their reported solubility kinetic.
- particulars: buffer; pH 7.4; 200.0 µM
Residues, ends and D or L forms follow the SMILES beside them.
measured quantity: solubility kinetic

molecule	result
O=C(Nc1ccc(C(=O)O)cc1)Nc1cccc2ccccc12	> 45.9 µg/mL
CC1CCCCN1C(=O)CCn1c(=O)oc2ccccc21 (stereo not drawn)	> 43.3 µg/mL
Cc1ccc(C(=O)C(C)OC(=O)c2nc(Cl)ccc2Cl)cc1 (stereo not drawn)	> 50.7 µg/mL
CCOC(=O)CC(=O)COc1nc2cc3c(nc2o1)CCCC3	> 47.7 µg/mL
CC(=O)NCCc1c(C)n(Cc2ccccc2)c2ccccc12	> 46 µg/mL
Nc1cccc(NC(=O)CN2CCOCC2)c1	> 35.3 µg/mL
CC1(C)C=C2C(=NN(c3ccccc3)C(N)=C2C#N)CO1	> 42 µg/mL
CC1(NC(=O)Cc2c(F)cccc2Cl)CCS(=O)(=O)C1 (stereo not drawn)	> 48 µg/mL
COc1nc2ccccc2nc1N1CCN(c2ccc(F)cc2)CC1	< 0.2 µg/mL
COc1ccc(OC)c(N2C(=O)CC(NNC(=O)c3ccc4c(c3)OCO4)C2=O)c1 (stereo not drawn)	> 62 µg/mL
COCCCNc1ncnc2c1nc1n2CCCC1	> 39.2 µg/mL
O=C(NNC(=O)c1ccco1)c1csc(N2CCOCC2)n1	> 48.4 µg/mL
CCCCn1c(CCC(=O)O)nc2cc(S(=O)(=O)N3CCCC3)ccc21	> 56.9 µg/mL
CC(C)c1ccc(NC(=O)NCc2ccc3c(c2)OCO3)cc1	< 0.3 µg/mL
N#CCc1nc2ccccc2c(=O)[nH]1	> 27.8 µg/mL
COc1ccccc1CN1CCCCC1C(=O)O (stereo not drawn)	35.8 µg/mL
Cc1[nH]c(=S)c(C#N)c(C)c1Cc1ccc(Cl)cc1Cl	2.2 µg/mL
COc1cccc(-n2cnc3sc(C)cc3c2=O)c1	40.3 µg/mL
Cc1ccc(NC(=O)OCc2cc(-c3ccccc3)on2)cc1	< 0.3 µg/mL
CCC1CN(C(=O)NCc2cccc(OC)c2)c2cc(Cl)ccc2O1 (stereo not drawn)	4.5 µg/mL
COC(=O)[C@H](Cc1ccccc1)NC(=O)[C@@H](N)CC(=O)O (H-Asp-Phe-OMe)	> 44.1 µg/mL
COc1cc([N+](=O)[O-])ccc1NC(=O)Nc1cccnc1	1 µg/mL
CC(C)(C)OC(=O)NCCCCCO	> 30.5 µg/mL
CCCCN1C(=O)C(=O)N(CC(=O)Nc2ccc(OC(F)(F)F)cc2)C1=O	6.6 µg/mL
O=C(O)c1nccnc1C(=O)Nc1ccccc1N1CCOCC1	> 49.2 µg/mL
O=C(CSCc1ccc(Cl)cc1)Nc1cccc(C(=O)O)c1	> 50.4 µg/mL
O=C(NC1CCCCCC1)c1cc2ccccc2oc1=O	3.4 µg/mL
O=C(NCCNC(=O)c1cc(Cl)ccc1Cl)c1cnccn1	> 50.9 µg/mL
CC(C)Cc1nc(Cl)c(C#N)c2c1CCC2	3.8 µg/mL
Cc1ccc2nc(SCC(=O)Nc3ccc(C(N)=O)cc3)[nH]c2c1	9.9 µg/mL
COc1cccc(/C=c2\s/c(=C\C(=O)C(C)(C)C)[nH]c2=O)c1	2.1 µg/mL
CCC(=O)c1ccc(OCC(=O)OCC(=O)N(CCC#N)c2ccc3c(c2)OCCO3)cc1	47.5 µg/mL
COC(=O)c1ccc(COc2ccc(/C=N/O)cc2)o1	> 41.3 µg/mL

* * *

- particulars: buffer; pH 7.4; 200.0 µM

compound	solubility kinetic
O=[N+]([O-])c1ccc(Cc2ccccn2)cc1	> 32.1 µg/mL
COc1cccc2[nH]c(C(=O)NCCCN3CCCC3=O)cc12	> 47.3 µg/mL
Cc1ccc(N2CC(C(=O)N3CCCCC3)CC2=O)cc1C (configuration not stated)	> 45.1 µg/mL
CC(C)(/C=N/O)/[N+]([O-])=C/c1ccccc1	> 30.9 µg/mL
COc1cccc(NC(=S)NCc2ccccc2)c1	> 40.9 µg/mL
Cc1ccc(N=C(NO)c2cnccc2C(F)(F)F)c(C)c1	> 46.4 µg/mL
Cc1occc1-c1nnc(SCC(=O)NC2CC2)n1C	> 43.9 µg/mL

meta.source: PubChem BioAssay AID1996
